# METHOD NOTES: Splicing modulation activity at Exon E7b mRNA in human cell lysates assessed as induction of poison exon inclusion in RNA measured cells pretreated for 24 hrs followed by first 16 hrs of incubation treated with cycloheximide for 8 hrs by qPCR
# Type: subcellular
Measured EC50 by item
PARAMETER: EC50 (nM)

                    structure_smiles_string  parameter  assay_result
0  CN(c1ncc(-c2ccc(-c3cn[nH]c3)cc2O)nn1)[C@@H]1C[C@H]2CC[C@@H](C1)N2       EC50          39.6
1  CNC(=O)/C=C/c1cc(O)c(-c2ccc(N(C)[C@H]3C[C@]4(C)CCC[C@](C)(C3)N4)nn2)cc1F       EC50            41
2  CN(c1ccc(-c2cc(F)c(-c3cn[nH]c3)cc2O)nn1)[C@@H]1C[C@H]2CCC[C@@H](C1)N2       EC50           168
3  CNC(=O)c1ccc2cc(-c3ccc(N(C)[C@H]4C[C@]5(C)CCC[C@](C)(C4)N5)nn3)c(O)cc2n1       EC50           9.3
4  CN(c1ccc(-c2cc(F)c(-c3ccn(CF)c(=O)c3)cc2O)nn1)[C@H]1C[C@]2(C)CCC[C@](C)(C1)N2       EC50            88

* * *

# METHOD NOTES: Splicing modulation activity at wild type Exon 12/12b/12c/13 mRNA in human cell lysates assessed as induction of poison exon inclusion in RNA measured cells pretreated for 24 hrs followed by first 16 hrs of incubation treated with cycloheximide for 8 hrs by qPCR
# Type: subcellular
PARAMETER: IC50 (nM)

>>> df
                    structure_smiles_string  unit_descriptor  assay_result
0  CN(c1ccc(-c2cc(F)c(-c3ccn(CF)c(=O)c3)cc2O)nn1)[C@H]1C[C@]2(C)CCC[C@](C)(C1)N2               nM          94.7
1  CNC(=O)/C=C/c1cc(O)c(-c2ccc(N(C)[C@H]3C[C@]4(C)CCC[C@](C)(C3)N4)nn2)cc1F               nM           162
2  CNC(=O)c1ccc2cc(-c3ccc(N(C)[C@H]4C[C@]5(C)CCC[C@](C)(C4)N5)nn3)c(O)cc2n1               nM            54
3  CN(c1ccc(-c2cc(F)c(-c3ccn(C)c(=O)c3)cc2O)nn1)[C@H]1C[C@]2(C)CCC[C@](C)(C1)N2               nM           116

* * *

Measured pEC50 by item
# METHOD NOTES: Splicing modulation activity at Exon E7c mRNA in human cell lysates assessed as induction of poison exon inclusion in RNA measured cells pretreated for 24 hrs followed by first 16 hrs of incubation treated with cycloheximide for 8 hrs by qPCR
# Assay type: subcellular
pEC50: −log10 of the molar value.
PARAMETER: pEC50

>>> df
                    structure_smiles_string  parameter  assay_result
0  CN(c1ccc(-c2cc(F)c(-c3cn[nH]c3)cc2O)nn1)[C@@H]1C[C@H]2CCC[C@@H](C1)N2      pEC50          6.79
1  CN(c1ncc(-c2ccc(-c3cn[nH]c3)cc2O)nn1)[C@@H]1C[C@H]2CC[C@@H](C1)N2      pEC50          6.53
2  CNC(=O)/C=C/c1cc(O)c(-c2ccc(N(C)[C@H]3C[C@]4(C)CCC[C@](C)(C3)N4)nn2)cc1F      pEC50          6.51
3  CNC(=O)c1ccc2cc(-c3ccc(N(C)[C@H]4C[C@]5(C)CCC[C@](C)(C4)N5)nn3)c(O)cc2n1      pEC50          7.22
4  CN(c1ccc(-c2cc(F)c(-c3ccn(CF)c(=O)c3)cc2O)nn1)[C@H]1C[C@]2(C)CCC[C@](C)(C1)N2      pEC50          6.53
